src = patent US6525063B2

Quick list: melting point per entry.

Any idea what its melting point is? The compound is `CCc1c(C)cnc2c1C(=O)c1ncc(C)c(CC)c1C2=O`
180 to 182 °C

Another compound: Cc1cnc2c(c1)C(=O)c1nccc(Cl)c1C2=O [(11a), 8-Chloro-3-methyl-1,5-diazaanthraquinone]
208 to 210 °C

Next:
For the compound Cc1ccnc2c1C(=O)c1nccc(Cl)c1C2=O [(13a), 4-Chloro-8-methyl-1,5-diazaanthraquinone] , what melting point is on record?
> 300 °C

Also need `CCc1cnc2c(c1)C(=O)c1ncc(CC)cc1C2=O` , thanks.
218 to 220 °C

* * *

# System: P388 (ATCC CCL-46) cells
# ASSAY NAME: in vitro cytotoxic assay, P388 cells
# Format: cell-based
# RUN PARAMETERS: 72 h; P388 lymphoid neoplasm from DBA/2 mouse, suspension culture; three days of incubation; approximate IC50 by growth vs control
PARAMETER MEASURED: pIC50
Expect pIC50 as a plain number equal to -log10 of the molar concentration.

Recorded pIC50, per entry:
Recall the recorded pIC50 for CCc1c(C)cnc2c1C(=O)c1ncc(C)c(CC)c1C2=O [(4d)] with P388 (ATCC CCL-46) cells and state it.
5.47

Repeat for the following compound: CC1C=CN(N(C)C)C2=C1C(=O)c1nccc(Cl)c1C2=O (stereo not drawn) [(12a)]
5.48

Proceed to Cc1cnc2c(c1)C(=O)c1ncc(C)cc1C2=O [(4b), 3,7-Dimethyl-1,5-diazaanthraquinone]
5.13

How about Cc1ccnc2c1C(=O)c1nccc(C)c1C2=O [(4c), 4,8-Dimethyl-1,5-diazaanthraquinone] ?
5.38

Likewise for CCc1cnc2c(c1)C(=O)c1ncc(CC)cc1C2=O [(4a), 3,7-Diethyl-1,5-diazaanthraquinone] ?
6.35

More entries:
Please provide the recorded pIC50 for Cc1cnc2c(c1)C(=O)c1nccc(Cl)c1C2=O [(11a), 8-Chloro-3-methyl-1,5-diazaanthraquinone] , tested on P388 (ATCC CCL-46) cells.
6.82

Subsequent entry: O=C1c2nccc(-c3ccccc3[N+](=O)[O-])c2C(=O)c2nccc(Cl)c21 [(13b)]
6.57

Now the same for Cc1ccnc2c1C(=O)c1nccc(Cl)c1C2=O [(13a), 4-Chloro-8-methyl-1,5-diazaanthraquinone]
5.41

Moving on to the next compound: Cc1ccnc2c1C(=O)c1nccc(N(C)C)c1C2=O [(14a)]
5.03
